Heads up, these compounds all have IC50 values measured for JAK2 (Homo sapiens (Human)).
Counter-ions that a name gives are not always drawn.
measured_endpoint: IC50 (µM)

Worked cases, answers included:
CNC(=O)c1n[nH]c2cc(-c3cc(F)c(O)cc3CC(F)(F)F)nc(NCc3ccccc3N(C)S(=O)(=O)c3cccnc3)c12; 0.0727
CCN(c1ccc(O)cc1CNc1nc(-c2cc(F)c(O)cc2CC(F)(F)F)cc2[nH]nc(C(=O)NC)c12)S(=O)(=O)c1ccccc1; 0.401
CCN(c1ncc(C)cc1CNc1nc(-c2cc(F)c(O)cc2CC(F)(F)F)cc2[nH]nc(C(N)=O)c12)S(C)(=O)=O; 0.0878
CNC(=O)c1n[nH]c2cc(-c3cc(F)c(O)cc3CC(F)(F)F)nc(NCc3ccccc3N(C)S(=O)(=O)c3ccc(C)nc3)c12; 0.0637
CN(c1ccccc1CNc1nc(-c2cc(F)c(O)cc2CC(F)(F)F)cc2[nH]nc(C(N)=O)c12)S(=O)(=O)c1ccc(N2CCOCC2)nc1; 0.0838

I: Oc1cc(CC(F)(F)F)c(-c2nc(NCCC3CC3)c3cn[nH]c3n2)cc1F
II: CCc1cc(O)c(F)cc1-c1cc2[nH]ncc2c(NCc2cc(Cl)ccc2N(C)S(C)(=O)=O)n1 [Example 133, hydrochloride]
Query block: Parameter metric = IC50. Return the lower-valued option from I and II . Respond using the label that marks the chosen record.
Result block: II
(II: 0.0059 µM, I: 0.228 µM)

###

system: JAK1 (Homo sapiens (Human), UniProt P23458)
Sequence (P23458 whole entry, species assumed): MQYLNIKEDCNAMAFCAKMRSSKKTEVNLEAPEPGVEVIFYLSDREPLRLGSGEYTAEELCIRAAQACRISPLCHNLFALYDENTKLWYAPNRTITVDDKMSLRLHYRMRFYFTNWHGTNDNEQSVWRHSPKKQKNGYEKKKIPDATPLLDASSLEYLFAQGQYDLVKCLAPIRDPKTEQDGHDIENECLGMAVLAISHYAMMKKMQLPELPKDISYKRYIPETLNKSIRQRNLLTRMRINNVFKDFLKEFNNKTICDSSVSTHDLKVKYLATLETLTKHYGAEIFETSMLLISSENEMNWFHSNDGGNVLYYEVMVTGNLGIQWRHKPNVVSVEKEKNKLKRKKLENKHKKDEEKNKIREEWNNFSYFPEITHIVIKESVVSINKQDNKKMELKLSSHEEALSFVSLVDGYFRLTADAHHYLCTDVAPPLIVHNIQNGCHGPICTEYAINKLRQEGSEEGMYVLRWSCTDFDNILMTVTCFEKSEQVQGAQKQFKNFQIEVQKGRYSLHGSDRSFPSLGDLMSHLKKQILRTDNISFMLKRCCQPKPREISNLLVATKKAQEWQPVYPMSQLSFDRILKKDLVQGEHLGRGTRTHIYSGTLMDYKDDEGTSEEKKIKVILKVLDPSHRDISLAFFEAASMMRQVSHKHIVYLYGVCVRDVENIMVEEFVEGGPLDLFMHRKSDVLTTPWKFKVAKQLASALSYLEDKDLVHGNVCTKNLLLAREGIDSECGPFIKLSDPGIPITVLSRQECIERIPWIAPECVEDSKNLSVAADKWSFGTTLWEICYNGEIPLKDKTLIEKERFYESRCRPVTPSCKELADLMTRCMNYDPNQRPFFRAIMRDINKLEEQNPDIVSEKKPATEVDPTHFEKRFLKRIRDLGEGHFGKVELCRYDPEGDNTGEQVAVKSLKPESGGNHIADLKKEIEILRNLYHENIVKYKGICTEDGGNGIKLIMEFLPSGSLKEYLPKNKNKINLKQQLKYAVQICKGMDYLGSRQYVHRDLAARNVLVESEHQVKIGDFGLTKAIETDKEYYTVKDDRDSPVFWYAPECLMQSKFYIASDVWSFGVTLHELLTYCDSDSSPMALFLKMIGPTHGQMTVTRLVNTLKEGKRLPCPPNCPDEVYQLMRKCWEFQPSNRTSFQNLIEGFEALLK
measured_endpoint: IC50 (nM)

CCc1cc(O)c(F)cc1-c1cc2[nH]nc(-c3nc(C)c[nH]3)c2c(NCc2ccccc2N(C)S(C)(=O)=O)n1; 4.3
CCN(c1ncccc1CNc1nc(-c2cc(F)c(O)cc2CC(F)(F)F)cc2[nH]nc(C(=O)NC)c12)S(C)(=O)=O; 5

P: CCc1cc(O)c(F)cc1-c1cc2[nH]nc(C(=O)NC)c2c(NCC(C)C)n1
Q: CN(c1ccccc1CNc1nc(-c2cc(F)c(O)cc2CC(F)(F)F)cc2[nH]nc(C(N)=O)c12)S(C)(=O)=O
Query block: Of the two listed items, P and Q , which carries the larger IC50 figure? Respond using the label that marks the chosen record.
Result block: Q
(Q: 3.3 nM, P: 2.1 nM)

a: Cc1ccc(NC(=O)c2n[nH]c3cc(-c4cc(F)c(O)cc4CC(F)(F)F)nc(NCc4ccccc4N(C)S(C)(=O)=O)c23)cn1
b: CCc1cc(O)c(F)cc1-c1cc2[nH]nc(C(=O)Nc3ccc(C)nc3)c2c(NCc2ccccc2N(C)S(C)(=O)=O)n1
Query block: Of the two listed items, a and b , which carries the larger IC50 figure? Respond using the label that marks the chosen record.
Result block: a

###

Heads up, these compounds all have IC50 values measured for JAK2 (Homo sapiens (Human)).
Structures can show the parent of a compound that is named as a salt.
measured_endpoint: IC50 (nM)

Worked cases, answers included:
Cc1ccc(NC(=O)c2n[nH]c3cc(-c4cc(F)c(O)cc4CC(F)(F)F)nc(NCc4ccccc4N(C)S(C)(=O)=O)c23)cn1; 113
CCc1cc(O)c(F)cc1-c1nc(NCc2ccccc2N(C)S(C)(=O)=O)c2cn[nH]c2n1 [Example 155, hydrochloride]; 5
CCN(c1ccc(F)cc1CNc1nc(-c2cc(F)c(O)cc2CC(F)(F)F)cc2[nH]nc(C(N)=O)c12)S(C)(=O)=O; 63.3

A: CCc1cc(O)c(F)cc1-c1cc2[nH]nc(C(=O)NC)c2c(NCc2ccccc2N(C)S(=O)(=O)CC)n1
B: CN(c1ncccc1CNc1nc(-c2cc(F)c(O)cc2CC(F)(F)F)cc2[nH]nc(C(N)=O)c12)S(C)(=O)=O
Query block: Parameter metric = IC50. Return the lower-valued option from A and B . Respond using the label that marks the chosen record.
Result block: A
(A: 9.6 nM, B: 14.4 nM)

###

system: JAK1 (Homo sapiens (Human), UniProt P23458)
pIC50: −log10 of the molar value. Structures can show the parent of a compound that is named as a salt.
measured_endpoint: pIC50

Worked cases, answers included:
CCN(c1ncc(C)cc1CNc1nc(-c2cc(F)c(O)cc2CC(F)(F)F)cc2[nH]nc(C(N)=O)c12)S(C)(=O)=O; 7.51
CN(c1ccc(O)cc1CNc1nc(-c2cc(F)c(O)cc2CC(F)(F)F)cc2[nH]nc(C(N)=O)c12)S(=O)(=O)c1ccccc1; 7.60

1: Cc1ccc(S(=O)(=O)N(C)c2ccccc2CNc2nc(-c3cc(F)c(O)cc3CC(F)(F)F)cc3[nH]nc(C(N)=O)c23)cn1
2: CCc1cc(O)ccc1-c1cc2[nH]ncc2c(N2CCc3c(cccc3NS(C)(=O)=O)C2)n1 [Example 123, formate]
Query block: Parameter metric = pIC50. Return the lower-valued option from 1 and 2 . Respond using the label that marks the chosen record.
Result block: 1
(1: 7.92, 2: 8.48)

###

Counter-ions that a name gives are not always drawn.
Heads up, these compounds all have IC50 values measured for JAK2 (Homo sapiens (Human), UniProt O60674).
measured_endpoint: IC50 (µM)

Worked cases, answers included:
CNC(=O)c1n[nH]c2cc(-c3cc(F)c(O)cc3CC(F)(F)F)nc(NCc3ccccc3N(C)S(=O)(=O)c3cccc(O)c3)c12 [Example 32]; 0.277
CCc1cc(O)ccc1-c1cc2[nH]ncc2c(NCc2c(C)cccc2N(C)S(C)(=O)=O)n1 [Example 127]; 0.0149
CNC(=O)c1n[nH]c2nc(-c3cc(F)c(O)cc3CC(F)(F)F)nc(NCc3cc(F)ccc3N(C)S(C)(=O)=O)c12 [Example 104]; 0.0661
CCc1cc(O)c(F)cc1-c1cc2[nH]ncc2c(N(C)Cc2ccccc2N(CC)S(C)(=O)=O)n1 [Example 145, hydrochloride]; 0.0045
Cc1ccc(-c2nnc(-c3n[nH]c4cc(-c5cc(F)c(O)cc5CC(F)(F)F)nc(NCc5ccccc5N(C)S(C)(=O)=O)c34)[nH]2)cn1 [Example 166]; 0.0974

P: CCc1cc(O)c(F)cc1-c1cc2[nH]ncc2c(N(CC)Cc2cc(C)ccc2N(C)S(C)(=O)=O)n1 [Example 143]
Q: CCc1cc(O)c(F)cc1-c1cc2[nH]ncc2c(NCc2ccccc2N(CC)S(=O)(=O)CC)n1 [Example 136, hydrochloride]
R: CCN(c1ncccc1CNc1nc(-c2cc(F)c(O)cc2CC(F)(F)F)cc2[nH]nc(C(=O)NC)c12)S(C)(=O)=O [Example 63]
Query block: Rank the items in ascending order with respect to IC50. As an answer, provide the labels arranged in the order called for.
Result block: Q, R, P

1: CCc1cc(O)c(F)cc1-c1nc(NCc2ccccc2N(C)S(C)(=O)=O)c2c(C(=O)NC)n[nH]c2n1 [Example 93]
2: CN(c1ccccc1CNc1nc(-c2cc(F)c(O)cc2CC(F)(F)F)cc2[nH]nc(C(N)=O)c12)S(=O)(=O)c1cccnc1 [Example 61]
Query block: Parameter metric = IC50. Return the lower-valued option from 1 and 2 . Respond using the label that marks the chosen record.
Result block: 1
(1: 0.0084 µM, 2: 0.0302 µM)

1: CCN(c1nccnc1CNc1nc(-c2cc(F)c(O)cc2CC(F)(F)F)cc2[nH]nc(C(=O)NC)c12)S(C)(=O)=O [Example 45]
2: CCc1cc(O)c(F)cc1-c1cc2[nH]ncc2c(NCc2c(F)cccc2N(C)S(C)(=O)=O)n1 [Example 134, hydrochloride]
Query block: Of the two listed items, 1 and 2 , which carries the larger IC50 figure? Respond using the label that marks the chosen record.
Result block: 1
(1: 0.0189 µM, 2: 0.0017 µM)

P: CCN(c1ccc(Cl)cc1CNc1nc(-c2cc(F)c(O)cc2CC(F)(F)F)cc2[nH]nc(C(N)=O)c12)S(C)(=O)=O [Example 84]
Q: CCc1cc(O)c(F)cc1-c1cc2[nH]nc(C(=O)NC)c2c(NCc2ccccc2N(CC)S(=O)(=O)CC)n1 [Example 2]
Query block: Of the two listed items, P and Q , which carries the larger IC50 figure? Respond using the label that marks the chosen record.
Result block: P
(P: 0.142 µM, Q: 0.017 µM)

###

system: JAK3 (Homo sapiens (Human))
Sequence (P52333 whole entry, species assumed): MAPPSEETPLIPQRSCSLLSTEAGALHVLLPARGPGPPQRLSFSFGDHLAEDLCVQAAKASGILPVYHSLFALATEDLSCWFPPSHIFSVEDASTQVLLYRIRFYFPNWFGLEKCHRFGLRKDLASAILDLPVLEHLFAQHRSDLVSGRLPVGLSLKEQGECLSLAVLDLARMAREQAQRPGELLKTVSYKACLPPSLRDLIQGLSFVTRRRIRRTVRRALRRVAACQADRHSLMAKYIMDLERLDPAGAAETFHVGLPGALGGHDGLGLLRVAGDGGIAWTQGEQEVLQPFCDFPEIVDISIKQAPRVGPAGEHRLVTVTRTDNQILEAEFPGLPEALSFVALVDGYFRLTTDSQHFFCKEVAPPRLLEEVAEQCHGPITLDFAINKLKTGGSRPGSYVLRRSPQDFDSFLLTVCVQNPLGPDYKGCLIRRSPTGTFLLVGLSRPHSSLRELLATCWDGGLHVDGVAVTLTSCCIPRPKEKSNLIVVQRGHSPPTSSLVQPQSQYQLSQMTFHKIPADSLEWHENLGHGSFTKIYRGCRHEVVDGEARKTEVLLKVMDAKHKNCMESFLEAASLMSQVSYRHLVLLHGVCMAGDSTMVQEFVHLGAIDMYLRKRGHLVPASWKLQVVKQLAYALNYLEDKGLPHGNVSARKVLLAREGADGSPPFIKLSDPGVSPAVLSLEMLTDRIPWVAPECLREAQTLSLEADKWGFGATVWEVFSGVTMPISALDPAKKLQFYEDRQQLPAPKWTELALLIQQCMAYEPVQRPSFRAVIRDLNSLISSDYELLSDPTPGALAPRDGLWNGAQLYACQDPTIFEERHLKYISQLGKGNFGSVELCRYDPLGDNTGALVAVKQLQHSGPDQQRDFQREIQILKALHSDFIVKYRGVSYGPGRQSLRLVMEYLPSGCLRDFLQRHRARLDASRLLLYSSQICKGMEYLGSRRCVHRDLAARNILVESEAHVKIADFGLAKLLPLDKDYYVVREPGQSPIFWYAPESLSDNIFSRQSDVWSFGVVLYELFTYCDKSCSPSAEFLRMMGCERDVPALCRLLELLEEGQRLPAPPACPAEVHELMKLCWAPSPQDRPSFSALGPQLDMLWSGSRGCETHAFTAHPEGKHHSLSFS
pIC50: −log10 of the molar value.
measured_endpoint: pIC50

CCN(c1ccc(F)cc1CNc1nc(-c2cc(F)c(O)cc2CC(F)(F)F)cc2[nH]nc(C(N)=O)c12)S(C)(=O)=O; 6.70

P: CCN(c1ncc(C)cc1CNc1nc(-c2cc(F)c(O)cc2CC(F)(F)F)cc2[nH]nc(C(N)=O)c12)S(C)(=O)=O
Q: CN(c1ccc(Cl)cc1CNc1nc(-c2cc(F)c(O)cc2CC(F)(F)F)cc2[nH]nc(C(N)=O)c12)S(C)(=O)=O
Query block: Of the two listed items, P and Q , which carries the larger pIC50 figure? Respond using the label that marks the chosen record.
Result block: P

P: CCc1cc(O)c(F)cc1-c1cc2[nH]nc(C(=O)Nc3ccc(C)nc3)c2c(NCc2ccccc2N(C)S(C)(=O)=O)n1
Q: CCc1cc(O)c(F)cc1-c1cc2[nH]nc(C(=O)NC)c2c(NCc2cc(O)ccc2N(C)S(C)(=O)=O)n1
Query block: Parameter metric = pIC50. Return the lower-valued option from P and Q . Respond using the label that marks the chosen record.
Result block: P

a: CCc1cc(O)c(F)cc1-c1cc2[nH]nc(C(N)=O)c2c(NCc2ccccc2N(C)S(=O)(=O)c2ccccc2)n1
b: CN(c1ccccc1CNc1nc(-c2cc(F)c(O)cc2C2CC2)cc2[nH]nc(C(N)=O)c12)S(C)(=O)=O
Query block: Parameter metric = pIC50. Return the lower-valued option from a and b . Respond using the label that marks the chosen record.
Result block: a

a: CCc1cc(O)c(F)cc1-c1cc2[nH]nc(C(=O)NC)c2c(NCc2ccc(O)cc2N(C)S(C)(=O)=O)n1
b: CCN(c1nccnc1CNc1nc(-c2cc(F)c(O)cc2CC(F)(F)F)cc2[nH]nc(C(=O)NC)c12)S(C)(=O)=O
c: CCc1cc(O)c(F)cc1-c1cc2[nH]ncc2c(N(CCN2CCOCC2)Cc2ccccc2N(C)S(C)(=O)=O)n1
d: CNC(=O)c1n[nH]c2cc(-c3cc(F)c(O)cc3CC(F)(F)F)nc(NCc3cc(Cl)ccc3N(C)S(C)(=O)=O)c12
Query block: Order the records so the highest pIC50 appears first and the lowest last. As an answer, provide the labels arranged in the order called for.
Result block: a, b, c, d

Data provenance: patent US9518052B2
